target: DDR1 (Homo sapiens); construct: purchased Carna Biosciences; assay: LanthaScreen Europium Kinase Binding assay, DDR1; conditions: 5 nM DDR1, 20 nM Kinase Tracer 178, 1 h at rt; Ki from IC50 by Cheng-Prusoff; read-out: Ki DDR1
Sequence (Q08345 19-913): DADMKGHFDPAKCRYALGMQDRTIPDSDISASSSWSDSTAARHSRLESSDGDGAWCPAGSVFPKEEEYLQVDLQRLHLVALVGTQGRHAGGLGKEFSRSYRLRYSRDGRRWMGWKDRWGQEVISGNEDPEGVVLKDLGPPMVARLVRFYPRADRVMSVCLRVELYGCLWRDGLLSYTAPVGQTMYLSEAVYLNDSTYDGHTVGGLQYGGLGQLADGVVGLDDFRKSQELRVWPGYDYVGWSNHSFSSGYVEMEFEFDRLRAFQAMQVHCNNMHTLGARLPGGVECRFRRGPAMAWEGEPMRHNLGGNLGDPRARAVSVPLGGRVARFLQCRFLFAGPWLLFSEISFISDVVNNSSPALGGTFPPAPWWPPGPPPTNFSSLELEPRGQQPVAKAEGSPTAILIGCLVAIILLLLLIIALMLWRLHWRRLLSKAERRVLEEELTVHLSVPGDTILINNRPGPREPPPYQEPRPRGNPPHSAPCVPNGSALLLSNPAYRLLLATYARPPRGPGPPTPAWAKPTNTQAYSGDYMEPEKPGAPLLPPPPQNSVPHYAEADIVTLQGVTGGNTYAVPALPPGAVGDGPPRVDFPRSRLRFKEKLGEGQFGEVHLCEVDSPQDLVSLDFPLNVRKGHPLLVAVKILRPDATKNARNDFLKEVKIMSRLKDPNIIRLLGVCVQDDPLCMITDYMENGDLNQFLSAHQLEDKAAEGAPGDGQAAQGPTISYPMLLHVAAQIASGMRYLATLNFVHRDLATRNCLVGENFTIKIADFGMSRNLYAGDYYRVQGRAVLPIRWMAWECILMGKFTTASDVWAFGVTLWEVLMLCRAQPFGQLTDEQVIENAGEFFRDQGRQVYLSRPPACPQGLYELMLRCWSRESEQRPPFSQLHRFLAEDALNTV
pKi: −log10 of the molar value.
Entries annotated with measured pKi

Below, each entry is followed by its recorded pKi result.
compound | pKi
Cc1ccc(C(=O)Nc2cc(OC(F)(F)F)ccn2)cc1[C@@H]1CCN(c2cncnc2)C1 [Example 12] | > 8.30
COc1cnc2c(N3CC[C@@H](c4cc(C(=O)Nc5cncc(C(F)(F)F)c5)ccc4C)C3)cnn2c1 [Example 97] | > 8.30
Cc1ccc(C(=O)Nc2cc(C(F)(F)F)nn2C)cc1[C@@H]1CCN(c2cncnc2)C1 [Example 68] | 7.60 to 8.30

Now consider a different compound.
For reference, reported pKi for CC(=O)Nc1ncc(N2CC[C@@H](c3cc(C(=O)Nc4cncc(C(F)(F)F)c4)ccc3C)C2)cn1 [Example 130] stands at > 8.30
